Data provenance is patent US20100291682.

Target: T1, MBP-Mos-1 transposase (MBP-Tnp) (Drosophila mauritiana, UniProt Q7JQ07 SEQ:1-345)
T1 sequence: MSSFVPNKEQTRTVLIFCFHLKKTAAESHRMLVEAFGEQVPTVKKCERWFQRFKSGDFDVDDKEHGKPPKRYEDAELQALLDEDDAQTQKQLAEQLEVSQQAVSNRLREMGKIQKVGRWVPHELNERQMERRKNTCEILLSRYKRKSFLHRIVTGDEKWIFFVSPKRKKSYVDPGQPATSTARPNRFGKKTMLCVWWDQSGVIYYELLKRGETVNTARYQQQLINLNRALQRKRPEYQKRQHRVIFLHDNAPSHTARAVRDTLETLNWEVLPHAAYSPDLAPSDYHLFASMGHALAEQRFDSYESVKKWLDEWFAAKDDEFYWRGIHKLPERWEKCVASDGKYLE
Experiment description: EMSA; clone number to SEQ mapping not given
Conditions: tags: N-terminal MBP (pMalC2x); chain copies: 2
Property label: binding result

INSERT INTO assay_data (binder, reported_result) VALUES
  ('ITRSelex SEQ 42 (dsDNA) DNA 1: CGATTACAATTATGAAAACTTTCCT DNA 2: AGGAAAGTTTTCATAATTGTAATCG', 'binds'),
  ('ITRSelex SEQ 41 (dsDNA) DNA 1: GAAGAGTTATAACTCAAGAAAACTGAAT DNA 2: ATTCAGTTTTCTTGAGTTATAACTCTTC', 'binds'),
  ('ITRSelex SEQ 40 (dsDNA) DNA 1: GCGGGTGTGAAAATATGAAATATTCACT DNA 2: AGTGAATATTTCATATTTTCACACCCGC', 'binds');
